Measured values drawn from paper PMC9369794 for this set.

Experiment: Hydrodynamic diameter and colloidal stability of aggregates by dynamic light scattering
Type: physicochemical
Details: 5 μM in PBS; sd^2/mean size^2
Procedure: In contrary, all spectra gave a hypsochromic shift and loss of fine-structure when the DMSO solutions were diluted with PBS, which refers to the formation of H-type (card-pack) aggregates (Figures S1–S12). […] Size determination of aggregates and the colloidal stability of the sample dispersions were determined by dynamic light scattering measurements, where the hydrodynamic diameter of particles, and zeta potential values were collected. […]
Readings of PDI for the listed compounds
Just the number, please, no unit attached.

The examples below pair each entry with its known result.
# Compound, PDI
data = [
    ("COc1ccc2[nH]cc(CCNC(=O)CNC(=O)CCC(=O)O[C@@H]3CC(C)=C(/C=C/C(C)=C/C=C/C(C)=C/C=C/C=C(C)/C=C/C=C(C)/C=C/C4=C(C)C[C@@H](OC(=O)CCC(=O)NCC(=O)NCCc5c[nH]c6ccc(OC)cc56)CC4(C)C)C(C)(C)C3)c2c1 [Compound 14, Zeaxanthin-bismelatonin conjugate]", 0.0659),
    ("CC1=C(/C=C/C(C)=C/C=C/C(C)=C/C=C/C=C(C)/C=C/C=C(\\C)COC(=O)CCC(=O)O)C(C)(C)CCC1 [Compound 6, 8′-Apo-β-carotenol succinate]", 0.0204),
    ("CC1=C(/C=C/C(C)=C/C=C/C(C)=C/C=C/C=C(C)/C=C/C=C(C)/C=C/C2=C(C)C[C@@H](OC(=O)CCC(=O)O)CC2(C)C)C(C)(C)C[C@H](O)C1 [Compound 11, Zeaxanthin monossuccinate]", 0.0297),
]

Now look at this entry.
Data request: Quick one: PDI for CC1=C(/C=C/C(C)=C/C=C/C(C)=C/C=C/C=C(C)/C=C/C=C(C)/C=C/C2=C(C)C[C@@H](OC(=O)CCC(=O)O)CC2(C)C)C(C)(C)CCC1 [Compound 8, β-Cryptoxanthin succinate] ?
Data returned: 0.0339
